Test system: Kyn levels in BxPC-3 cells
Test name: Automated (high-throughput) Kyn assay in IFN-γ-stimulated BxPC-3 cells
Assay type: cell-based, human
Particulars: Homo sapiens; supplementary CSV; single point measurement at 7.1 µM, BxPC-3 cells; read-out: Kyn assay inhibition
# inhibition at 7.1 µM per entry

Reference set (5 entries):
Compound	inhibition at 7.1 µM
Cn1cc(SC(F)(Cl)Cl)c2cc(Br)ccc21	42%
CCc1c(C)n(C(=O)c2ccco2)c2ccc(Br)cc12	18%
CC(C)OCCCNC(=O)c1c(Cl)c2cc(Br)ccc2n1C	-4%
CN1C(=O)C(Cc2cn(Cc3ccccc3)c3ccc(Br)cc23)c2ccccc21 (stereo not drawn)	23%
O=C(Cn1cc(CC2C(=O)N(c3ccccc3)c3ccccc32)c2cc(Br)ccc21)N1CCCC1 (stereo not drawn)	36%

Data request: Using known records, supply inhibition at 7.1 µM for `N#Cc1cn(CC(=O)Nc2cccc(C(F)(F)F)c2)c2ccc(Br)cc12`
Data returned: -30%

Data request: Using known records, supply inhibition at 7.1 µM for `COC(=O)c1cn(C(C)=O)c2ccc(Br)cc12`
Data returned: -18%

Data request: Using known records, supply inhibition at 7.1 µM for `Cn1c(C(=O)O)c(Cl)c2cc(Br)ccc21`
Data returned: 4%

Data request: Using known records, supply inhibition at 7.1 µM for `Cc1nc(-c2ccc(CCNC(=O)Cn3c(C)cc4ccccc43)cc2)cs1`
Data returned: 87%

---

# inhibition at 7.1 µM per entry
System: Kyn levels in BxPC-3 cells
Test name: Automated (high-throughput) Kyn assay in IFN-γ-stimulated BxPC-3 cells
Type: cell-based, human
Particulars: Homo sapiens, BXPC-3, read-out: Kyn assay inhibition
Unit % implied. Number only.

Reference set (8 entries):
Compound	Tested system	Value kind	Unit symbol	Numeric value
CC(C)(C)OC(=O)NCCOCCOCCOCCOCC#Cc1ccc2c(c1)c(C(=O)C(F)(F)F)cn2CC(=O)NC1CCCCCC1 [2a]	Kyn levels in BxPC-3 cells	inhibition at 7.1 µM	%	76
COCCNC(=O)Cn1cc(C(=O)C(F)(F)F)c2ccccc21	Kyn levels in BxPC-3 cells	inhibition at 7.1 µM	%	0
O=C(c1cn(Cc2ccc(F)cc2)c2ccccc12)C(F)(F)F [1u]	Kyn levels in BxPC-3 cells	inhibition at 7.1 µM	%	28
COCCCNC(=O)Cn1c(C)c(C(=O)C(F)(F)F)c2ccccc21	Kyn levels in BxPC-3 cells	inhibition at 7.1 µM	%	-2
O=C(Cn1cc(C(=O)C(F)(F)F)c2cc(Br)ccc21)N1CCCC1 [1o]	Kyn levels in BxPC-3 cells	inhibition at 7.1 µM	%	70
O=C(Cn1cc(C(=O)C(F)(F)F)c2ccccc21)NCc1ccccc1	Kyn levels in BxPC-3 cells	inhibition at 7.1 µM	%	3
O=Cc1cn(CC(=O)N2CCCCCC2)c2ccc(Br)cc12	Kyn levels in BxPC-3 cells	inhibition at 7.1 µM	%	-22
CCc1cccc2c(C(=O)C(F)(F)F)cn(Cc3ccc(F)cc3)c12	Kyn levels in BxPC-3 cells	inhibition at 7.1 µM	%	-4

Data request: Using known records, supply inhibition at 7.1 µM for `CCc1cccc2c(C(=O)C(F)(F)F)cn(CC(=O)N(CC)CC)c12`
Data returned: 4

Data request: Using known records, supply inhibition at 7.1 µM for COCCCNC(=O)Cn1cc(C(=O)C(F)(F)F)c2cc(Br)ccc21 [1j]
Data returned: 95

Source listed as paper PMC10983002.
